Assay: physchem
Binary classification by chromatographic logP, with 3 as an inclusive lower bound for 1.0; all other cases are 0.0.

Would you please look over these solved cases?
Compound: CC1CCON1c1c(-c2c(F)cc(F)cc2F)c(Cl)nc2ncnn12 (stereo not shown) [Example 1]
Qualitative Label: 0.0
--
Compound: Fc1cc(F)c(-c2c(Cl)nc3ncnn3c2N2OC3CCC2C3)c(F)c1 (stereo not shown) [Example 18]
Qualitative Label: 0.0

**Query** Is it the case that Fc1ccc(-c2c(Cl)nc3ncnn3c2N2OC3CCC2C3)c(F)c1 (stereo not shown) [Example 43] has chromatographic logP reaching or exceeding 3?
**Result** 0.0

**Query** Is it the case that CC1CCCON1c1c(-c2ccccc2Cl)c(Cl)nc2ncnn12 (stereo not shown) [Example 41] has chromatographic logP reaching or exceeding 3?
**Result** 1.0

**Query** Is it the case that Fc1cc(F)c(-c2c(Cl)nc3ncnn3c2N2Cc3ccccc3CO2)c(F)c1 [Example 5] has chromatographic logP reaching or exceeding 3?
**Result** 1.0

**Query** Is it the case that Fc1cc(F)c(-c2c(Cl)nc3ncnn3c2N2OC3CCC2C3)c(C(F)(F)F)c1 (stereo not shown) [Example 46] has chromatographic logP reaching or exceeding 3?
**Result** 1.0

**Query** Is it the case that Fc1cccc(Cl)c1-c1c(Cl)nc2ncnn2c1N1OC2CCC1C2 (stereo not shown) [Example 34] has chromatographic logP reaching or exceeding 3?
**Result** 0.0

**Query** Is it the case that Fc1cccc(Cl)c1-c1c(Cl)nc2ncnn2c1N1NC2CCC1C2 (stereo not shown) [Example 28] has chromatographic logP reaching or exceeding 3?
**Result** 0.0

**Query** Is it the case that Fc1ccc(-c2c(Cl)nc3ncnn3c2N2OC3CCC2C3)c(Cl)c1 (stereo not shown) [Example 44] has chromatographic logP reaching or exceeding 3?
**Result** 0.0

**Query** Is it the case that Fc1ccc(-c2c(Cl)nc3ncnn3c2N2CCCCO2)c(Cl)c1 [Example 8] has chromatographic logP reaching or exceeding 3?
**Result** 1.0

* * *

Consider the following molecules and their measured pest or weed control at 100 g/ha readings.
Tested on: Venturia inaequalis
Test: Venturia Test (apple)/protective
Format: in vivo
Settings: 240 h, apple plants, protective spray, evaluation 10 days after inoculation, 100% = no infection, read-out: Efficacy in %
Respond with the bare value in %.

Example results:
Molecule: Clc1cccc(Cl)c1-c1c(Cl)nc2ncnn2c1N1CCCCN1 [drawing 64]
Experimental Endpoint: pest or weed control at 100 g/ha
Readout Value: 99
--
Molecule: Fc1cc(F)c(-c2c(Br)nc3ncnn3c2N2CCCCN2)c(F)c1 [drawing 71]
Experimental Endpoint: pest or weed control at 100 g/ha
Readout Value: 93
--
Molecule: Fc1cccc(F)c1-c1c(Cl)nc2ncnn2c1N1CCCCO1 [drawing 57]
Experimental Endpoint: pest or weed control at 100 g/ha
Readout Value: 100
--
Molecule: CC1CCCON1c1c(-c2c(F)cc(F)cc2F)c(Cl)nc2ncnn12 (stereo not shown) [drawing 54]
Experimental Endpoint: pest or weed control at 100 g/ha
Readout Value: 100
--
Molecule: Fc1cccc(Cl)c1-c1c(Cl)nc2ncnn2c1N1CCCCN1 [drawing 49]
Experimental Endpoint: pest or weed control at 100 g/ha
Readout Value: 100
--
Molecule: Fc1ccc(-c2c(Cl)nc3ncnn3c2N2CCCCO2)c(Cl)c1 [drawing 47]
Experimental Endpoint: pest or weed control at 100 g/ha
Readout Value: 100
--
Molecule: CC1CCCON1c1c(-c2ccccc2Cl)c(Cl)nc2ncnn12 (stereo not shown) [drawing 61]
Experimental Endpoint: pest or weed control at 100 g/ha
Readout Value: 99
--
Molecule: Fc1ccc(-c2c(Cl)nc3ncnn3c2N2OC3CCC2C3)c(Cl)c1 (stereo not shown) [drawing 62]
Experimental Endpoint: pest or weed control at 100 g/ha
Readout Value: 100
--
Molecule: Fc1cc(F)c(-c2c(Cl)nc3ncnn3c2N2NC3CCC2C3)c(F)c1 (stereo not shown) [drawing 65]
Experimental Endpoint: pest or weed control at 100 g/ha
Readout Value: 93
--
Molecule: Fc1cccc(Cl)c1-c1c(Cl)nc2ncnn2c1N1OC2CCC1C2 (stereo not shown) [drawing 58]
Experimental Endpoint: pest or weed control at 100 g/ha
Readout Value: 100

**Query** Return the recorded pest or weed control at 100 g/ha value; entry: CC1CCON1c1c(-c2c(F)cc(F)cc2F)c(Cl)nc2ncnn12 (stereo not shown) [drawing 55]
**Result** 100

**Query** Return the recorded pest or weed control at 100 g/ha value; entry: Fc1cc(F)c(-c2c(Cl)nc3ncnn3c2N2OC3CCC2C3)c(C(F)(F)F)c1 (stereo not shown) [drawing 53]
**Result** 100

**Query** Return the recorded pest or weed control at 100 g/ha value; entry: CC1CCON1c1c(-c2c(F)cccc2Cl)c(Cl)nc2ncnn12 (stereo not shown) [drawing 59]
**Result** 100

**Query** Return the recorded pest or weed control at 100 g/ha value; entry: Fc1cc(F)c(-c2c(Cl)nc3ncnn3c2N2OC3CCC2C3)c(F)c1 (stereo not shown) [drawing 51]
**Result** 100

**Query** Return the recorded pest or weed control at 100 g/ha value; entry: Fc1ccc(-c2c(Cl)nc3ncnn3c2N2CCCCO2)c(F)c1 [drawing 48]
**Result** 96

**Query** Return the recorded pest or weed control at 100 g/ha value; entry: Fc1cc(C(F)(F)F)cc(F)c1-c1c(Cl)nc2ncnn2c1N1CCCCN1 [drawing 70]
**Result** 100
